Tested on: Klebsiella pneumoniae
Settings: Concentration 20 uM; ASSAY_TEST Inhibition of Bacterial Growth; detection method Absorption (OD600); MEDIA CAMHB; plate type 384well; NBS; CORNING #3640; time 18 hr
Description: Antibacterial activity against Klebsiella pneumoniae MDR ATCC 70063 (CO-ADD:GN_003); MIC in CAMBH media using NBS plates, by OD(600)
Measured potencies and affinities stand elsewhere.
ATTRIBUTE_MEASURED: Inhibition (%)
# number only, unit % dropped from output

Inquiry: Find the recorded Inhibition belonging to `O=C(NCc1nnc2n1CCCCC2)c1ccc(-c2ccc(F)cc2)o1` and report it.
Reply text: 6.05

Inquiry: Reported Inhibition for `CC(C)(C)OC(=O)N1CCN(c2cc(-c3ccc(Oc4ccccc4)cc3)n[nH]2)CC1` : what is it?
Reply text: 20.96

Inquiry: Look up Inhibition: `Clc1cccc(CO[C@H]2CCc3ccccc3[C@@H]2n2ccnn2)c1`
Reply text: 8.29

Inquiry: Quick check: Inhibition of `CC(=O)Nc1ccc(NC(=O)c2cc(-c3cc(Cl)ccc3O)n[nH]2)cc1` ?
Reply text: -16.31

Inquiry: Which measured Inhibition value corresponds to `CC(C)(C)CN1C(=O)C(c2ccccc2)(c2ccccc2)N=C1N` ?
Reply text: 14.16

Inquiry: Could you share which Inhibition value was measured for `CCOc1ccc2cc(-c3nn(CC4CCN(C)CC4)c4ncnc(N)c34)ccc2c1.Cl` ?
Reply text: 14.21

Inquiry: I would be grateful if you could share the reported Inhibition for `O=C(NC1CC1)c1ccc(CSCc2ccccc2Cl)o1` .
Reply text: 1.21

Inquiry: Field request: Inhibition | item: COc1ccc(CN2CCOc3ccc(C(C)(O)CN(C)C)cc3C2)cc1C (stereo unspecified)
Reply text: 16.19

Inquiry: I have this molecule here, `CC(C)(CN)c1nc(-c2ccc(Cl)c(O)c2)c(-c2ccnc(N)n2)[nH]1.O=C(O)C(F)(F)F.O=C(O)C(F)(F)F` , and I need its recorded Inhibition.
Reply text: 15.34

Inquiry: Param item = `COc1ccc(S(=O)(=O)Nc2ccc(CN3CCN(C(=O)c4cccc(C#N)c4)CC3)cc2)cc1` ; retrieve measured Inhibition.
Reply text: 6.9

Inquiry: Inhibition lookup needed for `CCOC(=O)c1noc(N)c1-c1ccccc1` , thanks.
Reply text: 13.91

Inquiry: If you can, please state the reported Inhibition value of `CCCn1c(CNc2ccccc2O)nc2ccccc21` .
Reply text: 12.8

Inquiry: Data request, read-out Inhibition, for CC(=O)Nc1ccc(-c2noc(CC3CCCN(Cc4cccc(F)c4C)C3)n2)cc1 (stereo unspecified)
Reply text: 14.96

Inquiry: Could you share which Inhibition value was measured for `CCOc1ccc(-c2nc(NC(=O)CS(=O)(=O)c3ccccc3)sc2C)cc1` ?
Reply text: 8.83

Inquiry: Which Inhibition is listed for `COc1cccc2c(C)nc(N=C(N)N)nc12.O=C(O)C(F)(F)F.O=C(O)C(F)(F)F` ?
Reply text: 9.38

Inquiry: Recorded Inhibition of `CC(C)NCC(=O)Nc1cccc(C(=O)Nc2cccc(C(F)(F)F)c2)c1` , please.
Reply text: 10.29

Inquiry: Bench note: what Inhibition did `O=C(C1CCN(c2nnc(-n3cccc3)s2)CC1)N1CCC(Cc2ccccc2)CC1` show?
Reply text: 11.79

Inquiry: Tell me the measured Inhibition of OC[C@H]1O[C@@H](n2c3ccc(Cl)cc3c3c(-c4cc5ccccc5o4)ncnc32)C(O)[C@H]1O (stereo partly specified) , please.
Reply text: 8.56

Inquiry: What value of measured Inhibition is listed for Cc1ccc(NC(=O)CC2COc3ccccc3O2)cc1Cl (stereo unspecified) ?
Reply text: 11.14

Inquiry: I would be grateful if you could share the reported Inhibition for Cc1noc(C)c1C(=O)N1CCCC(c2[nH]c3c(C)cccc3c2-c2ccncc2)C1 (stereo unspecified) .
Reply text: 18.77

Inquiry: Which Inhibition value is on record for `O=C(NC1CCCCC1)N1CCN(Cc2ccc3c(c2)OCO3)CC1` ?
Reply text: 10.77
